Molecular target: T1, human ROR2 expressed on the cell surface (human, UniProt Q01974 34-943)
T1 construct: Endogenous ROR2 of human tumour cell lines; also called cell surface ROR2; ROR2 on tumour cell lines
T1 sequence (Q01974 34-943 limits assumed): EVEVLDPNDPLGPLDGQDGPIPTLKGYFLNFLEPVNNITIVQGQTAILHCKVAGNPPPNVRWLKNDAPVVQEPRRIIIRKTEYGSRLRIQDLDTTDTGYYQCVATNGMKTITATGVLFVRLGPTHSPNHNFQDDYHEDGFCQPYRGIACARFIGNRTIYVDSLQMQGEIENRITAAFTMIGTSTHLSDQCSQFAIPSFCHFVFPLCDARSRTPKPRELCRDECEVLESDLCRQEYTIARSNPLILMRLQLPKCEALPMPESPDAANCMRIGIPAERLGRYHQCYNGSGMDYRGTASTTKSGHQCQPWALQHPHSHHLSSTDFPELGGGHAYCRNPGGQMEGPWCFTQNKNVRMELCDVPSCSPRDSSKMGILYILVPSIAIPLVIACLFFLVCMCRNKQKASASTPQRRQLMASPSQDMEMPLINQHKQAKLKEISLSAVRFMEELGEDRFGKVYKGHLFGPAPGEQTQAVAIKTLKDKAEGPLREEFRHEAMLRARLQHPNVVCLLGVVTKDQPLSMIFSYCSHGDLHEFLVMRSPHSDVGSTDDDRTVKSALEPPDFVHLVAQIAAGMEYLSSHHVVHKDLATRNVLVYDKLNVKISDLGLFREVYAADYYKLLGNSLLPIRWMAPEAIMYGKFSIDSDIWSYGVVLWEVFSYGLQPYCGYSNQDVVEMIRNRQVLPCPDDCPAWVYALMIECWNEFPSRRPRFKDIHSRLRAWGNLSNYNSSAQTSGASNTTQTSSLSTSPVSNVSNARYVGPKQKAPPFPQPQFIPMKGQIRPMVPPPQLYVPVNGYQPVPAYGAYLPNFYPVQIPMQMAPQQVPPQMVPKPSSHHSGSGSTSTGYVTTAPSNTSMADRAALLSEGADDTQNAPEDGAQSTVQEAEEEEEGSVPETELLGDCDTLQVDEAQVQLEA
Test: flow cytometry, IMR32 cells (neuroblastoma)
Design: unit not given here

>  <binder>
ROR2-240 full length human IgG1 antibody (antibody, V domains shown, also called clone #240 IgG1) VH: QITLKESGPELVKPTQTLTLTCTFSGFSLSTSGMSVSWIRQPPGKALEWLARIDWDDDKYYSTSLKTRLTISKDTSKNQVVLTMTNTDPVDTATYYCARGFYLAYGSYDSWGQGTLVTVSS VL: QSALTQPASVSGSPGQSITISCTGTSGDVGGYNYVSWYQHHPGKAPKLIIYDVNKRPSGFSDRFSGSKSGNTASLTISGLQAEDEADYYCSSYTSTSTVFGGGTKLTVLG

>  <binding intensity>
29

$$$$
>  <binder>
ROR2-241 full length human IgG1 antibody (antibody, V domains shown) VH: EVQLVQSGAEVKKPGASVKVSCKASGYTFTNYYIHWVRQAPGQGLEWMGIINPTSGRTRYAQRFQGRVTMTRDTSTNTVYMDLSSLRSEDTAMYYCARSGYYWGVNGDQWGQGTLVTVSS VL: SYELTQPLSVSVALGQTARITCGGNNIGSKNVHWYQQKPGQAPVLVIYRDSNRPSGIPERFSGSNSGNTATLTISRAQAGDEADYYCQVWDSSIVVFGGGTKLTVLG

>  <binding intensity>
50

$$$$
>  <binder>
ROR2-90 full length human IgG1 antibody (antibody, V domains shown, also called clone #90; antibody #90) VH: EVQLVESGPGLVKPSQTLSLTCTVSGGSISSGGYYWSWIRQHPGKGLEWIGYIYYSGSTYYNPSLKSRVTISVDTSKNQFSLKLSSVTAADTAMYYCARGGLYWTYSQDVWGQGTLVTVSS VL: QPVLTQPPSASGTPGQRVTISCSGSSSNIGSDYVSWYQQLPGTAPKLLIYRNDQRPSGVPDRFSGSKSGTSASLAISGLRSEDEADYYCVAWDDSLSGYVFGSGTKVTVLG

>  <binding intensity>
51

$$$$
>  <binder>
ROR2-23 full length human IgG1 antibody (antibody, V domains shown, The light chain of clone 023 is labelled kappa; also called clone #23; clone #023 IgG1) VH: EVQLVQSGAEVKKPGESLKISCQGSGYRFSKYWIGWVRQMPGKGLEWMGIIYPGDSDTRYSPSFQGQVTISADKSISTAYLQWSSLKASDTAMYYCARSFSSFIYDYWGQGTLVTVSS VL: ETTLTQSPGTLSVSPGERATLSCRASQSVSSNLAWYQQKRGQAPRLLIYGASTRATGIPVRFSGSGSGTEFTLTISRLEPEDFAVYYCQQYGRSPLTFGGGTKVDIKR

>  <binding intensity>
24

$$$$

Reference source for all entries: patent US20180127503A1
